system: SW-620 colon; assay: NCI tumour cell line growth inhibition, 48 h
Metric name: TGI

# count of solved cases: 3
{"Compound": "Cc1cc(C)nc(NS(=O)(=O)c2ccc(NC(=O)c3ccc(Cl)c4c(Nc5ccc(S(=O)(=O)N=C(N)N)cc5)c5ccccc5nc34)cc2)n1", "Subject of test": "SW-620 colon", "Metric name": "TGI", "Result": "76 µM"}
{"Compound": "COc1cc(C23OCC(Cc4cc5c(cc42)OCO5)C3CO)cc(OC)c1OC (centres undefined)", "Subject of test": "SW-620 colon", "Metric name": "TGI", "Result": "> 100 µM"}
{"Compound": "C[C@]12CC[C@@H]3c4ccc(OCCN5CCCC5)cc4CC[C@H]3[C@@H]1CCC2=O", "Subject of test": "SW-620 colon", "Metric name": "TGI", "Result": "> 100 µM"}

# evaluate next
# TGI of N#Cc1c(-c2ccccc2)c(C#N)c(=O)n(C2OC(CO)C(O)C(O)C2O)c1S (centres undefined) = > 100 µM

###

tested on: HCT-15 colon; assay: NCI tumour cell line growth inhibition, 48 h; in the data active = GI50 below about 0.43 µM; inactive = the rest
One label from this list, please: 1 = active, -1 = inactive

{"Molecule": "COc1cc(/C=C\\c2cc(/C=C\\c3ccc(O)c(OC)c3)n(C(=O)CNc3ccc(Cl)cc3)n2)ccc1O", "Subject of test": "HCT-15 colon", "Classification": -1}

Dear all, I need the recorded test outcome for C/C=C(/C)C(=O)OC1C=C(CO)C(=O)C(OC(=O)C(C)(O)C(C)Cl)C1C(C)C (stereo unspecified) , thank you. -1

Dear all, I need the recorded test outcome for COc1cc(-c2ccc(NC(=O)NC3CC3)c(OC)c2)ccc1NC(=O)NC1CC1 , thank you. -1

###

test system: NCI-H23 lung; assay: NCI tumour cell line growth inhibition, 48 h
Metric name: TGI

{"Compound": "Nc1nc(N)c(N=Nc2ccc(C(=O)O)c(O)c2)c(N)n1", "Subject of test": "NCI-H23 lung", "TGI": "> 100 µM"}
{"Compound": "CCOC(=O)N1[C@@H]2CCC[C@@H]2C(=O)[C@@H]2CCC[C@@H]21", "Subject of test": "NCI-H23 lung", "TGI": "> 100 µM"}
{"Compound": "NNC(=O)N/N=C1\\C(=O)N(c2nccs2)C(=O)C(=O)C1c1nc2ccccc2s1 (stereo not given)", "Subject of test": "NCI-H23 lung", "TGI": "> 100 µM"}

# TGI of CC1=CC(C)(C)Nc2ccc(CSc3ccccc3)cc21 = > 100 µM

# TGI of Cc1nnc(-c2ccc(C)c(-c3ccc(C(=O)NCc4ccc(Cl)cc4)cc3)c2)o1 = > 25 µM

###

tested on: OVCAR-5 ovarian; assay: NCI tumour cell line growth inhibition, 48 h
Metric name: TGI (µM)
Only the number, expressed in µM, is required.

{"Given smiles": "O=C(O)c1ccc(Nc2nc3cc(C(F)(F)F)ccc3nc2-c2ccccc2)cc1", "TGI [µM]": 97.7}

Field TGI (system: OVCAR-5 ovarian) for entry CCCCCCN(C)Cc1ccc(OCCOc2ccc(CN(C)CCCCCC)cc2)cc1 = 4.03

###

test system: HOP-62 NSCLC; assay: NCI tumour cell line growth inhibition, 48 h
TGI values, listed per item
Only the number, expressed in µM, is required.

{"Given smiles": "Cn1c(-c2ccc(N=NNc3ccc(-c4n[nH]c(=S)n4C)cc3)cc2)n[nH]c1=S", "Unit info": "µM", "TGI": 69.4}
{"Given smiles": "CCO[C@@H]1OC(=O)[C@@](C)(C(C)=O)[C@@H]1C", "Unit info": "µM", "TGI": 56.6}
{"Given smiles": "Cc1ccc(NC(=O)CC/C(CC(=O)C(C)(C)C)=N\\Nc2ccc([N+](=O)[O-])cc2[N+](=O)[O-])cc1C", "Unit info": "µM", "TGI": 61.9}
{"Given smiles": "O=C(Nc1cccc(Cl)c1)c1cc(N=Nc2ccc([N+](=O)[O-])cc2Cl)ccc1O", "Unit info": "µM", "TGI": 9.46}

# evaluate next
Field TGI (system: HOP-62 NSCLC) for entry COc1cc(/C=C\c2cc(/C=C\c3ccc(O)c(OC)c3)n(C(=O)CNc3ccc(Cl)cc3)n2)ccc1O = 16.7
